- Test system: MCF10A breast non-cancer cells
- test_description: MTT cell proliferation assay, MCF10A
- Format: cell-based, human
- experimental_context: Homo sapiens, MCF-10A, 24 h, read-out: IC50 on proliferation
pIC50: −log10 of the molar value.
value_type: pIC50

Task: Tell me measured pIC50 for C=C(C)[C@H]1Cc2c(ccc3c2O[C@@H]2COc4cc(OC)c(OC)cc4[C@@H]2C3=O)O1 please.
Result: < 4.30

----------
- Test system: COLO-205 colon cancer cells
- test_description: MTT cell proliferation assay, COLO-205
- Format: cell-based, human
- experimental_context: Homo sapiens, COLO 205, 24 h, read-out: IC50 on proliferation
value_type: IC50 (µM)
One number for each entry, in µM.

Task: Provide only the value of recorded IC50 for C=C(C)[C@H]1Cc2c(ccc3c2O[C@@H]2COc4cc(OC)c(OC)cc4[C@@H]2C3=O)O1 [Rotenone, rotenone]
Result: 37
